test system: TK-10; test: NCI tumour cell line growth inhibition, 48 h
Calls of active or inactive are those of the source. Cut-off read from the data, not from the text of the source: active = GI50 up to about 1.1 µM and inactive = higher.
I'd be grateful if you could share measured GI50 for these entries.

Dear colleague, I am looking for the recorded GI50 of the following compound: `O=C(Nc1ccc2ccccc2c1)c1cc2cc(CCl)ccc2oc1=O`
33.2 µM (inactive)

Endpoint output: GI50 of C=C1C(=O)OC2CC(C)C(C(O)CC(C)O)=CCC12 (stereo not drawn) . Value?
9.14 µM (inactive)

Would you mind telling me what GI50 value was observed for `CSc1nnc(CCC(=O)Nc2c(C)cccc2C)o1` ?
> 100 µM (inactive)

Recorded GI50 for CC(C)=C1C(=O)C[C@@]2(C)C[C@H]3OC3(C)CC/C=C(/C)CCC12 (stereo partly drawn) , please?
> 100 µM (inactive)

Any idea what its GI50 is? The compound is `Cc1ccc(-c2cc(-c3ccc(Cl)cc3)nc(/N=C3\C(=O)N(CN4CCCCC4)c4ccc(Cl)cc43)n2)cc1`
21.7 µM (inactive)

Entry under review: `CSC(SC)(C(=O)O)c1cc(-c2c(Cl)cccc2Cl)no1` . Reported GI50?
> 100 µM (inactive)

Give the measured GI50 of `COc1ccc(/C(Cl)=C(\CNc2ccccn2)c2ccccc2)cc1OC` .
> 100 µM (inactive)

May I ask what GI50 has been recorded for `CCCCCCCNC(P(=O)(O)O)P(=O)(O)O` ?
> 100 µM (inactive)

Tell me the measured GI50 of `COc1ccc(/C=N/NC(=O)NCCCN(C)C)cc1` , please.
> 100 µM (inactive)

Dear colleague, I am looking for the recorded GI50 of the following compound: CC(C1=CC=C2[C@@H]3CCC4CC(N(C)C)CC[C@]4(C)C3CC[C@]12C)N(C)C=O (stereo partly drawn)
> 100 µM (inactive)

Consider the compound `CN(C)S(=O)(=O)c1ccc2c(c1)/C(=C1/Nc3ccccc3C1=O)C(=O)N2` and give its measured GI50.
19.5 µM (inactive)

Data request, read-out GI50, for `Cc1sc(N)c(S(=O)(=O)c2ccccc2)c1C`
> 100 µM (inactive)

// returns reported GI50 for input `N[C@@H]1CCN(c2c(F)cc3c(=O)c(C(=O)O)cn4c3c2Oc2c-4ccc3c2ccc2ccccc23)C1`
2.38 µM (inactive)

Which value of GI50 has been reported for O=C1CCCCCCCCCCC1CN1CCCC1 (stereo not drawn) in the records?
32.3 µM (inactive)

GI50 lookup needed for `CCOP(=O)(C/C(=N/NC(C)(C)C)C(=O)Nc1nc2ccc(C)cc2s1)OCC` , thanks.
> 100 µM (inactive)

Report GI50 for CCOC(=O)C1=C(OC(OCC)C([Se]c2ccccc2)C(C)C)CCC1 (stereo not drawn) please.
47 µM (inactive)

Could you tell me which GI50 is on file for `CN1C(=O)C(=CNc2ccc(Cl)cc2Cl)C(=O)N(C)C1=O` ?
> 100 µM (inactive)

Suppose we examine the compound `Cc1cc(C(C)C)cc(=O)c(O)c1` ; what GI50 value has been reported?
> 100 µM (inactive)

Would you mind telling me what GI50 value was observed for `CCN(CC)c1ccc(/C=C/C=C2C(=O)NC(=S)NC2=O)cc1` ?
> 62.2 µM (inactive)

What does the record list as GI50 for C=C1CC(c2ccc(OCCCN3C(=O)c4ccccc4C3=O)cc2)OC1=O (stereo not drawn) ?
4.94 µM (inactive)

Which GI50 is reported for this compound? OCc1ccc2c(c1)CC1(C2)Cc2cc3c(cc2C1O)CCC3 (stereo not drawn)
21.9 µM (inactive)

Dear colleague, I am looking for the recorded GI50 of the following compound: `Cn1cco/c1=N/c1ccc(Cl)c(Cl)c1`
> 10 µM (inactive)

May I ask what GI50 has been recorded for `COc1ccc(-c2[nH]c3c4c(nc5c(c24)C(=O)CC(C)(C)C5)CC(C)(C)C3)cc1` ?
> 100 µM (inactive)

Entry under review: `O=c1c(Cl)c(Cl)cnn1CCCl` . Reported GI50?
15.9 µM (inactive)

Return reported GI50; argument: `N#C/C(=C\c1ccc(O)cc1O)C(N)=O`
> 100 µM (inactive)

# lookup: GI50 of CC(=O)NC1C(OCc2ccccc2)OC(CO)C(O)C1OCC(=O)N1CCCC1C(=O)N[C@@H](CCC(=O)NCCCCNc1c2ccccc2nc2cccc([N+](=O)[O-])c12)C(N)=O (stereo partly drawn)
73.8 µM (inactive)

Fill blank: measured GI50 of the compound O=C1C2=C(c3ccccc31)C(c1ccc(Cl)cc1)NC(S)=N2 (stereo not drawn) is ____.
22.8 µM (inactive)

// returns reported GI50 for input `COc1ccc(/C=C/c2cc(OC)c(OC)c(OC)c2)cc1O[Si](C)(C)C(C)(C)C`
27.1 µM (inactive)

Any idea what GI50 was measured for `Cn1cc(C(=O)c2ccccc2)cc(C(=O)c2ccccc2)c1=O` ?
> 100 µM (inactive)

Would you kindly share the measured GI50 for `Cc1cc(N)ccc1/N=N\c1ccc(S(=O)(=O)CCOS(=O)(=O)O)cc1` ?
14 µM (inactive)

Give its GI50 value. Item: `COC(=O)/C(C#N)=C(/NCc1ccccc1)Nc1ccccc1`
> 100 µM (inactive)

# GI50 lookup, item CC(NC(=O)C(N)CC(=O)O)NC(=O)N(C)C(C)(C)C (stereo not drawn)
> 100 µM (inactive)

Entry `Cc1c2ccccc2cc2cccc[n+]12` : reported GI50 = ?
39.8 µM (inactive)
